Below, each of the compounds is paired with its reported LNCaP cell viability value.
# System: LNCaP (prostate, carcinoma) cells
# method-notes: Cell viability assay, CellTiter-Glo (Example 21)
# Format: cell-based, human
# cond: 11.1 nM, 72 h

Before answering, review these 3 worked examples.
compound: O=C1C2=C(CCN(Cc3cc(F)cc(F)c3)C2)N2CCN=C2N1Cc1ccc(C(F)(F)F)cc1
measured-endpoint: LNCaP cell viability
measured-value: 15.0 ± 0.4 % of control
//
compound: O=C1C2=C(CCN(Cc3ccccc3)C2)N2CCN=C2N1Cc1ccc(C(F)(F)F)cc1 [I/1, reference compound]
measured-endpoint: LNCaP cell viability
measured-value: 101.4 ± 3.3 % of control
//
compound: O=C1C2=C(CCN(Cc3cccc(F)c3)C2)N2CCN=C2N1Cc1ccc(F)cc1 [I/6, reference compound]
measured-endpoint: LNCaP cell viability
measured-value: 97.9 ± 7.3 % of control

Entry O=C1C2=C(CCN(Cc3cc(F)cc(F)c3)C2)N2CCN=C2N1Cc1ccc(F)cc1 — recorded LNCaP cell viability = 17.2 ± 1.9 % of control

Entry [N-]=[N+]=Nc1cccc(CN2CCC3=C(C2)C(=O)N(Cc2ccc(Cl)cc2)C2=NCCN23)c1 — recorded LNCaP cell viability = 33.4 ± 3.1 % of control
